- Test system: Klebsiella aerogenes DSM 30053
- run description: fold change of Cadaverine concentration vs plate DMSO controls (fold change (ratio)); higher = more amine produced, active = hit call of the paper (significant change in both replicates, either direction)
- measurement parameters: incubation time: 27 h, anaerobic, 37 °C
Counter-ions that a name gives are not always drawn.
measured parameter: fold change of Cadaverine concentration
Give bare numbers.

{"columns": ["compound", "fold change of Cadaverine concentration"],
 "data": [
  ["CC(=O)/N=c1/sc(S(N)(=O)=O)nn1C [Methazolamide] (20 µM)", 0.996],
  ["CCOC(=O)[C@H](CCc1ccccc1)N[C@@H](C)C(=O)N(CC(=O)O)C1Cc2ccccc2C1 [Delapril Hydrochloride] (20 µM)", 0.998],
  ["CCN[C@H]1C[C@H](C)S(=O)(=O)c2sc(S(N)(=O)=O)cc21 [Dorzolamide hydrochloride] (20 µM)", 0.993],
  ["O=C(O)c1cccnc1Nc1cccc(C(F)(F)F)c1 [Niflumic acid] (20 µM)", 0.993],
  ["C=CCc1ccc(OC)c(OC)c1 [Methyleugenol] (20 µM)", 1.15]
]}

Each compound below has a recorded value; state its fold change of Cadaverine concentration.
1. Cc1ccc(C(=O)c2ccc(CC(=O)O)n2C)cc1 [Tolmetin sodium salt dihydrate] (20 µM)
2. CCc1ccc(CCOc2ccc(CC3SC(=O)NC3=O)cc2)nc1 (centres undefined) [Pioglitazone] (20 µM)
3. COc1ccc(CCN(C)CCCC(C#N)(c2ccc(OC)c(OC)c2)C(C)C)cc1OC (centres undefined) [Verapamil hydrochloride] (20 µM)

Reply:
[1, 0.998, 0.972]

Each compound below has a recorded value; state its fold change of Cadaverine concentration.
1. Cn1c(=O)c2c(ncn2CC2OCCO2)n(C)c1=O [Doxofylline] (20 µM)
2. COc1cc2nc(N3CCN(C(=O)C4CCCO4)CC3)nc(N)c2cc1OC (centres undefined) [Terazosin hydrochloride] (20 µM)
3. CC(C)C(=O)c1c(C(C)C)nn2ccccc12 [Ibudilast] (20 µM)
4. NCCNCCNCCNCCN [Tetraethylenepentamine pentahydrochloride] (20 µM)
5. Nc1ccn([C@@H]2O[C@H](CO)[C@@H](O)C2(F)F)c(=O)n1 [Gemcitabine] (20 µM)
6. O=C1[C@H](CC[C@H](O)c2ccc(F)cc2)[C@@H](c2ccc(O)cc2)N1c1ccc(F)cc1 [Ezetimibe] (20 µM)

Reply:
[0.993, 1.01, 0.997, 0.994, 0.999, 0.992]

---

- Tested on: Ruminococcus gnavus DSM 108212
- run description: fold change of Tryptamine concentration vs plate DMSO controls (fold change (ratio)); higher = more amine produced, active = hit call of the paper (significant change in both replicates, either direction);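 for the amine columns active = adjusted P below 0.05 in both replicates with a change the same way and a mean fold change under 0.8 or over 1.25; inactive = the rest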
- measurement parameters: incubation time: 27 h, anaerobic, 37 °C
Where a name gives a salt, the structure may show the parent alone.
Form entry, call: pick from active, inactive

These recorded examples may help you get a feel for the data.
{"columns": ["compound", "class"],
 "data": [
  ["CN1CC(=O)N2[C@H](c3ccc4c(c3)OCO4)c3[nH]c4ccccc4c3C[C@@H]2C1=O [Tadalafil] (20 µM)", "inactive"],
  ["CC[C@H]1OC(=O)[C@H](C)[C@@H](O[C@H]2C[C@@](C)(OC)[C@@H](O)[C@H](C)O2)[C@H](C)[C@@H](O[C@@H]2O[C@H](C)C[C@H](N(C)C)[C@H]2O)[C@](C)(OC)C[C@@H](C)C(=O)[C@H](C)[C@@H](O)[C@]1(C)O [Clarithromycin] (20 µM)", "active"],
  ["CCN(CC)CCNC(=O)c1cc(Cl)c(N)cc1OC [Metoclopramide monohydrochloride] (20 µM)", "inactive"],
  ["N/C(=N\\C(=O)c1nc(Cl)c(N)nc1N)NCc1ccccc1 [Benzamil hydrochloride] (20 µM)", "inactive"],
  ["CC[N+](C)(CC)CCC[n+]1c(-c2ccccc2)c2cc(N)ccc2c2ccc(N)cc21 [Propidium iodide] (20 µM)", "inactive"],
  ["CCCCCCNC(=O)n1cc(F)c(=O)[nH]c1=O [Carmofur] (20 µM)", "inactive"],
  ["Cc1cn([C@H]2C[C@H](N=[N+]=[N-])[C@@H](CO)O2)c(=O)[nH]c1=O [Zidovudine] (20 µM)", "inactive"],
  ["N=C(N)NC(=O)Cc1c(Cl)cccc1Cl [Guanfacine hydrochloride] (20 µM)", "inactive"]
]}

Ask: For O=C(O)COC(=O)Cc1ccccc1Nc1c(Cl)cccc1Cl [Aceclofenac] (20 µM) , which call appears in the assay record?
Reply: inactive
